Where do these numbers come from? They come from PubChem BioAssay (NCI).

- EXPERIMENT: NCI Yeast Anticancer Drug Screen. Data for the sgs1 mgt1 strain (AID 161)
- CONDITIONS: S. cerevisiae sgs1 mgt1 strain, at 50.0 µM (retest, dose inferred, filed as 5.0), hits give high values
About 79,000 compounds went through this panel and 15% of them were active in at least one assay; those are over-represented in the sample as a whole.
Category | rule: reported growth inhibition within range, see Low: < 20%; Medium: ≥ 20% and < 90%; High: ≥ 90%

Sample answers from the record:
[[record]]
molecule = "CC12OOC(c3ccccc31)c1c2ccc2ccccc12 (stereo not given)"
group = "High"

[[record]]
molecule = "CCOC(=O)C(c1ccsc1)P(=O)(OCC)OCC (stereo not given)"
group = "Medium"

[[record]]
molecule = "CN(C)C(=S)[S][Hg][c]1ccccc1"
group = "High"

[[record]]
molecule = "COC12C(COC(N)=O)C3=C(C(=O)C(C)=C(NC(C)C)C3=O)N1CC1NC12 (stereo not given)"
group = "Medium"


Could you place C1CCC(NCC2CCCO2)CC1 (stereo not given) in its proper category? Many thanks.
Low
